target: Serine/threonine-protein kinase B-raf (Homo sapiens, UniProt P15056)
Sequence (P15056 whole entry): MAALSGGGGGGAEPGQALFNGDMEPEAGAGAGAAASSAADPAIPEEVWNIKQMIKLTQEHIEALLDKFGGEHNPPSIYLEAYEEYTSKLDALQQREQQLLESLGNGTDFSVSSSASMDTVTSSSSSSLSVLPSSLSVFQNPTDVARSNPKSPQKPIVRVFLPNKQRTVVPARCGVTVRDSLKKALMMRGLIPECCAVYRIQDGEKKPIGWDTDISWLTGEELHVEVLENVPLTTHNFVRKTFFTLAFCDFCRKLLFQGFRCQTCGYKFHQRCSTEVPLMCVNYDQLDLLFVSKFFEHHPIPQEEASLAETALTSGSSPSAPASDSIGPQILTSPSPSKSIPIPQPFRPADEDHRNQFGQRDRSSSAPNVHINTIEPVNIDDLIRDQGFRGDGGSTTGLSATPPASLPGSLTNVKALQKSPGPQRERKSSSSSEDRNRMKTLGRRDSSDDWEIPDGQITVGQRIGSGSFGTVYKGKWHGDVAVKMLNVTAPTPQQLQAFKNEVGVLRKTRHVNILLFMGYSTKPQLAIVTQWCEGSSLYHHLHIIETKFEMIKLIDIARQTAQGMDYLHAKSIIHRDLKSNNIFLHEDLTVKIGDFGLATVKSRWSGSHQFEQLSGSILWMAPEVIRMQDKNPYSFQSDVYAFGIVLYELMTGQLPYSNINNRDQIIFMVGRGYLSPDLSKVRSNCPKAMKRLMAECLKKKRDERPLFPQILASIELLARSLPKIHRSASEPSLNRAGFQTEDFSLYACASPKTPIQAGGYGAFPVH
Catalogue of Kd readings, one per entry.
Value expressed in µM; do not type the unit.

// solved cases for Kd follow
Nc1nc(Nc2cccc(F)c2)c2[nH]cnc2n1: 4.8
O=C(O)c1ccc(Nc2ncnc3nc[nH]c23)cc1: 9.4
CN(C)C(=O)Cc1ccc(-c2cccc3c(Nc4cccc(O)c4)nncc23)cc1: 9.6
COc1cc(Nc2nc(N)nc3nc[nH]c23)cc(OC)c1OC: 4.1
CC(=O)Nc1ccc(Nc2ncnc3nc[nH]c23)cc1: 0.79

Kd for `Nc1nc(Nc2cccc(Br)c2)c2[nH]cnc2n1` ? 2.2

Do the same for `Nc1nc(Nc2ccc(F)c(Cl)c2)c2nc[nH]c2n1` please 3.2

And then `NS(=O)(=O)c1ccc(Nc2nncc3c(-c4ccc(O)cc4)cccc23)cc1` , what is it? 4.7

Provenance of the data: ChEMBL document CHEMBL1938317
